- System Tested: huCD28 (human, UniProt P10747 19-152, limits assumed)
- Test Method Notes: SPR, OAA format
Field: label. Allowed values: yes (1) (koff < 0.003 s⁻¹) or no (0) (koff >= 0.003 s⁻¹).

Challenge: Take the binder v37879 (antibody, V domains shown, OAA format as v34891; also called huTN228 V1114A (VL) OAA) VH: QVQLQESGPGLVKPSETLSLTCAVSGFSLTSYGVHWIRQPPGKGLEWLGVIWPGGGTNFNSALMSRLTISEDTSKNQVSLKLSSVTAADTAVYYCARDRAYGNYLYAMDYWGQGTLVTVSS VL: DIQMTQSPSSLSASVGDRVTITCRASESVEYYVTSLMQWYQQKPGKAPKLLIYAASNVDSGVPSRFSGSGSGTDFTLTISSLQPEDIATYYCQQSRKAPFTFGGGTKVEIK and say whether its koff is less than 0.003 s⁻¹.
Response given: yes (1)

Challenge: Check if koff falls below 0.003 s⁻¹ for v37868 (antibody, V domains shown, OAA format as v34891; also called huTN228 Y1034A (VL) OAA) VH: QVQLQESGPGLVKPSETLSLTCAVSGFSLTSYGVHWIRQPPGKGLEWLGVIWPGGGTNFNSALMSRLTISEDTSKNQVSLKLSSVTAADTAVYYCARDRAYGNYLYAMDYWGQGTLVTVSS VL: DIQMTQSPSSLSASVGDRVTITCRASESVEYAVTSLMQWYQQKPGKAPKLLIYAASNVDSGVPSRFSGSGSGTDFTLTISSLQPEDIATYYCQQSRKVPFTFGGGTKVEIK .
Response given: no (0)

Challenge: For v37882 (antibody, V domains shown, OAA format as v34891; also called huTN228 S1036T (VH) OAA) VH: QVQLQESGPGLVKPSETLSLTCAVSGFSLTTYGVHWIRQPPGKGLEWLGVIWPGGGTNFNSALMSRLTISEDTSKNQVSLKLSSVTAADTAVYYCARDRAYGNYLYAMDYWGQGTLVTVSS VL: DIQMTQSPSSLSASVGDRVTITCRASESVEYYVTSLMQWYQQKPGKAPKLLIYAASNVDSGVPSRFSGSGSGTDFTLTISSLQPEDIATYYCQQSRKVPFTFGGGTKVEIK , is the recorded koff below the cut-off of 0.003 s⁻¹?
Response given: no (0)

Challenge: I'd appreciate it if you could check whether v37874 (antibody, V domains shown, OAA format; also called huTN228 N1066A (VL) OAA) VH: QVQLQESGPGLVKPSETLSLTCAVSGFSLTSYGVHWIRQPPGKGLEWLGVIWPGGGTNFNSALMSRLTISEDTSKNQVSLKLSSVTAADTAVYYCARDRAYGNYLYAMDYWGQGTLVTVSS VL: DIQMTQSPSSLSASVGDRVTITCRASESVEYYVTSLMQWYQQKPGKAPKLLIYAASAVDSGVPSRFSGSGSGTDFTLTISSLQPEDIATYYCQQSRKVPFTFGGGTKVEIK has koff smaller than 0.003 s⁻¹.
Response given: no (0)

More entries:
Challenge: Dear colleague, could you confirm whether koff of v37870 (antibody, V domains shown, OAA format as v34891; also called huTN228 T1036A (VL) OAA) VH: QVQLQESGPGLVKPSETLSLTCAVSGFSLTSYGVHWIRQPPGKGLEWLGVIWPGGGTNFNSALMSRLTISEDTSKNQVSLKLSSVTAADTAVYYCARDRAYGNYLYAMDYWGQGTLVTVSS VL: DIQMTQSPSSLSASVGDRVTITCRASESVEYYVASLMQWYQQKPGKAPKLLIYAASNVDSGVPSRFSGSGSGTDFTLTISSLQPEDIATYYCQQSRKVPFTFGGGTKVEIK falls below 0.003 s⁻¹? Thanks.
Response given: no (0)
